test target: T1, GAL4 activation domain fusion (ACT) to HAB1 (UniProt Q9CAJ0 23-511, limits assumed)
T1 construct: pACT-HAB1 fusion in yeast reporter strains; also called pACT-HAB1
T1 sequence (looked up): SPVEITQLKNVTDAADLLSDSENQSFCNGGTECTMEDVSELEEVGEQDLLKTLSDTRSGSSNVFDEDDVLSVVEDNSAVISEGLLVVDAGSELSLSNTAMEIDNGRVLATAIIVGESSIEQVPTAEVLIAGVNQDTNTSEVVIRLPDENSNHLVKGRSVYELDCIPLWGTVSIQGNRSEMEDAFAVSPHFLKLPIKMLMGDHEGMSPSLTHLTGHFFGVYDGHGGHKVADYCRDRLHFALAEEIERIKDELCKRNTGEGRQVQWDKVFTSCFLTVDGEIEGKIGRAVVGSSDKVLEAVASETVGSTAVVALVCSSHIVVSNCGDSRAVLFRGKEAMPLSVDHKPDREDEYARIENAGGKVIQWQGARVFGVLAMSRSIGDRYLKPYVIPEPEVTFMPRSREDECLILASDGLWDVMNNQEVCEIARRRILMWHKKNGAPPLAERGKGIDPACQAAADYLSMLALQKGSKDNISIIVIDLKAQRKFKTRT
assay comment: yeast two-hybrid, X-gal; lowest fludioxonil concentration giving signal
The reader will find reported Threshold values listed item by item below.

{"columns": ["binder", "Threshold"],
 "data": [
  ["PYR1^K59R,Y120A,E141Y (receptor, not shown: small tags and cut ends, pBD-PYR1 fusion in yeast) MPSELTPEERSELKNSIAEFHTYQLDPGSCSSLHAQRIHAPPELVWSIVRRFDKPQTYRHFIKSCSVEQNFEMRVGCTRDVIVISGLPANTSTERLDILDDERRVTGFSIIGGEHRLTNAKSVTTVHRFEKENRIWTVVLYSYVVDMPEGNSEDDTRMFADTVVKLNLQKLATVAEAMARNSGDGSGSQVT", "10 µM"],
  ["PYR1^K59R,N167V (receptor, not shown: small tags and cut ends, pBD-PYR1 fusion in yeast) MPSELTPEERSELKNSIAEFHTYQLDPGSCSSLHAQRIHAPPELVWSIVRRFDKPQTYRHFIKSCSVEQNFEMRVGCTRDVIVISGLPANTSTERLDILDDERRVTGFSIIGGEHRLTNYKSVTTVHRFEKENRIWTVVLESYVVDMPEGNSEDDTRMFADTVVKLVLQKLATVAEAMARNSGDGSGSQVT", "100 µM"]
]}
